assay: protein stability index of a GFP-peptide fusion (yeast GPS) (PSI 1-4); higher = more stable; sorted into four equal gates, so the index is relative within each strain; conditions: ubr1∆
# protein stability index annotations
Measure: protein stability index

1) ENANADLENKFNRLKKQ [YIL149C/MLP2] ... 3
2) EDEDDDDDDDEDEEEEE [QCR6] ... 3.84
3) STVAKFLARVIKEKFDE [IRR1] ... 2.16
4) RVHRLLRRGNYAQRIGS [HTA1] ... 2.74
5) LRQQQQQQDQPEQSEQP [RPN10] ... 3.17
6) GANDLGFTASVSNQENA [MED1] ... 3.39
7) DSDGTRLKGDIFCVGSG [PRE2] ... 2.45
8) EFSPRLHNIWSNGLLSI [YML103C/NUP188] ... 1.89
9) VTVVDTPPVVVVGVVGY [RPL3] ... 1.39
10) ISPLMKSQYNMVLRNVM [SRB8] ... 2.84
11) KGVATTREKVLEDKLRA [RRP46] ... 3.04
12) NNSNTVASSTNFTSPTA [SWI1] ... 2.71
13) LRPGQEISLKAHCILGI [RPC40] ... 1.82
14) LHKRQQFSESTHNDIDS [YJL039C/NUP192] ... 3.03
15) EVSALVRSLPKEEQPKQ [PRP8] ... 1.08
16) FLLKAYINVSRGTDIDR [SRB5] ... 3.08
17) YPFVTNDDIEWMLSICV [YJR042W/NUP85] ... 2.68
18) PGGILRAQHVKKLATRP [RPL34A] ... 3.02
19) ELHKKLVEAAKLLKIPK [YDL116W/NUP84] ... 2.49
20) NVTTILDEIFSGCDSTK [ECM29] ... 2.63
21) GTNKDMILKLVCQVTKF [ECM29] ... 1.59
22) DDESEQISLNRLIDSMK [RRI1] ... 3.15
23) EPGHAADQEQAKLIRSA [RPO21] ... 3.12
24) EEIKQSARNYDKFKLNE [SMC1] ... 3.31
25) LEDYVPHQSPDATRVFV [RPB2] ... 3.07
26) LKVLSGDEGYNEDMVRR [SNF12] ... 3.56
27) KTRFKGSQFIVVSLKEG [SMC2] ... 3.34
28) INYLLTLAITTVTNSKF [RPN2] ... 2.67
29) PDDMVEINSVGNPGLPQ [ITC1] ... 3.09
30) LLKDDTYQLCVRLRSNV [RPN3] ... 1.25

* * *

experiment: protein stability index of a GFP-peptide fusion (yeast GPS) (PSI 1-4); higher = more stable; sorted into four equal gates, so the index is relative within each strain; conditions: ubr1∆
Listed next: entries and their corresponding protein stability index.
Measure: protein stability index

1) MKPSEILSLIEEAAGTK [SMC2] ... 3.22
2) TANDQYSSILGNSFNKS [YCG1] ... 3.46
3) TNSPQISVTRQVVLGGT [SMC2] ... 2.67
4) NHDRINISNNLQKALTV [RPN8] ... 3.27
5) LQCPMLYVESTGKFVLQ [CSN12] ... 2.68
6) MEDEILSLGMDFIKFDQ [BRN1] ... 3.15
7) NSSVGNKTDAQAPTTGF [YJL041W/NSP1] ... 2.96
